System: Bacillus subtilis
test.protocol: Antibacterial activity against Bacillus subtilis MTCC 441 after 16 hr by cup-plate method
Type: functional
condition.parameters: MTCC 441, 16 h
endpoint: MIC (mg/L)
Give your result in mg/L as a bare value.

Guide cases for MIC, answers given:
>>> print(df.to_string())
                                   compound  endpoint  value_reported
0  Fc1ccc2c(c1)Sc1cccnc1N2CCCCN1c2ccc(F)cc2Sc2cccnc21       MIC            12.5
1  Clc1ccc2c(c1)Sc1cccnc1N2CCCCCCN1c2ccc(Cl)cc2Sc2cccnc21       MIC              25
2      CC(=O)Nc1ccccc1Sc1ncccc1[N+](=O)[O-]       MIC              25
3  CC(=O)Nc1ccc(Cl)cc1Sc1ncccc1[N+](=O)[O-]       MIC              25
4  Brc1ccc2c(c1)Sc1cccnc1N2C/C=C/CN1c2ccc(Br)cc2Sc2cccnc21       MIC              25
5  Brc1ccc2c(c1)Sc1cccnc1N2CCCCCCN1c2ccc(Br)cc2Sc2cccnc21       MIC            12.5
6  Brc1ccc2c(c1)Sc1cccnc1N2CCCCN1c2ccc(Br)cc2Sc2cccnc21       MIC              50
7  CC(=O)Nc1ccc(Br)cc1Sc1ncccc1[N+](=O)[O-]       MIC              25
8  Fc1ccc2c(c1)Sc1cccnc1N2CCCCCCN1c2ccc(F)cc2Sc2cccnc21       MIC              25
9  c1ccc2c(c1)Sc1cccnc1N2CCCCCCN1c2ccccc2Sc2cccnc21       MIC              25

Identify measured MIC corresponding to O=C(O)c1cn(C2CC2)c2cc(N3CCNCC3)c(F)cc2c1=O [CIPROFLOXACIN]
6.25

Identify measured MIC corresponding to `CC(=O)Nc1ccc(F)cc1Sc1ncccc1[N+](=O)[O-]`
25

Identify measured MIC corresponding to `Clc1ccc2c(c1)Sc1cccnc1N2CCCCN1c2ccc(Cl)cc2Sc2cccnc21`
50
